Data origin, for the record: patent US20230046828A1

Molecular target: T1, RAGE-Fc chimera protein (BioTechne, 1145-RG) (UniProt Q15109 24-344)
T1 construct: Bought reagent; also called Fc-RAGE; not shown: CH domain of IgG (Fc)
T1 sequence (Q15109 24-344, change not shown): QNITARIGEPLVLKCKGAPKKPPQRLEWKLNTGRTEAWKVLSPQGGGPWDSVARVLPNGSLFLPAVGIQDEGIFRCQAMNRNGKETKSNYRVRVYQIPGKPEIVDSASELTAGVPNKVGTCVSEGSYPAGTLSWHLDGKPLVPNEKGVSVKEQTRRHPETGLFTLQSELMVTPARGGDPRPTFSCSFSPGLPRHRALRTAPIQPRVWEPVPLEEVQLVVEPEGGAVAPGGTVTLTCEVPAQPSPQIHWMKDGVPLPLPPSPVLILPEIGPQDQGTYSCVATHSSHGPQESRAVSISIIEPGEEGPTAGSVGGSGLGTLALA
Assay: BLI: RAGE-Fc on AHC sensors, HMGB1 construct 0-25 µM in solution; kinetics plot
Parameter log10 of koff: see the listing below.
observed_property: log10 of koff (log10 of the value in s⁻¹)

binder="fully-reduced HMGB1, full-length (1-214) (ligand, cysteines reduced (Cys 22, Cys 44, Cys 105), Tags differ by assay: biotinylated (c011) in BLI with CXCL12, His6-tagged in the reverse peptide array, TEV-cleaved in the RAGE ELISA and BLI; also called FR-HMGB1; FR FL-HMGB1 (c011)) GKGDPKKPRGKMSSYAFFVQTCREEHKKKHPDASVNFSEFSKKCSERWKTMSAKEKGKFEDMAKADKARYEREMKTYIPPKGETKKKFKDPNAPKRPPSAFFLFCSEYRPKIKGEHPGLSIGDVAKKLGEMWNNTAADDKQPYEKKAAKLKEKYEKDIAAYRAKGKPDAAKKGVVKAEKSKKKKEEEEDEEDEEDEEEEEDEEDEDEEEDDDDE" experimental_value=-1.39
binder="DS Box A 1-88 (full HMG Box construct with flanking regions) (ligand, oxidized (disulfide Cys 22-Cys 44), also called oxidized Box A alone) GKGDPKKPRGKMSSYAFFVQTCREEHKKKHPDASVNFSEFSKKCSERWKTMSAKEKGKFEDMAKADKARYEREMKTYIPPKGETKKKF" experimental_value=-0.36
binder="dBB12L (double Box B HMGB1 construct with 12-residue linker) (ligand, also called dBB12L-HMGB1; dBB-HMGB1) KDPNAPKRPPSAFFLFCSEYRPKIKGEHPGLSIGDVAKKLGEMWNNTAADDKQPYEKKAAKLKEKYEKDIAAYRAKGKPDAAKKGVKDPNAPKRPPSAFFLFCSEYRPKIKGEHPGLSIGDVAKKLGEMWNNTAADDKQPYEKKAAKLKEKYEKDIAAYRAKGKPDAAKKGV" experimental_value=-0.69
binder="DS-HMGB1 1-184 (ligand, oxidized Box A (disulfide Cys 22-Cys 44)) GKGDPKKPRGKMSSYAFFVQTCREEHKKKHPDASVNFSEFSKKCSERWKTMSAKEKGKFEDMAKADKARYEREMKTYIPPKGETKKKFKDPNAPKRPPSAFFLFCSEYRPKIKGEHPGLSIGDVAKKLGEMWNNTAADDKQPYEKKAAKLKEKYEKDIAAYRAKGKPDAAKKGVVKAEKSKKKK" experimental_value=-1.17
binder="non-oxidizable 3S-HMGB1, full-length (1-214) (ligand, Biotinylated (c022) in BLI with CXCL12, His6-tagged in the reverse peptide array; also called 3S-FL HMGB1 (c022)) GKGDPKKPRGKMSSYAFFVQTSREEHKKKHPDASVNFSEFSKKSSERWKTMSAKEKGKFEDMAKADKARYEREMKTYIPPKGETKKKFKDPNAPKRPPSAFFLFSSEYRPKIKGEHPGLSIGDVAKKLGEMWNNTAADDKQPYEKKAAKLKEKYEKDIAAYRAKGKPDAAKKGVVKAEKSKKKKEEEEDEEDEEDEEEEEDEEDEDEEEDDDDE" experimental_value=-1.82
